Molecular target: 17-beta-hydroxysteroid dehydrogenase type 1 (Homo sapiens)
Experiment: Inhibition of human placental cytosolic 17beta-HSD1 using [2,4,6,7-3H]-labeled E1/E1 as substrate and NADH at 1 uM after 10 mins by HPLC based radioflow detection method
Rule: inhibition of 70% or more gives true; anything lower gives false.

C=C(c1ccc(F)c(O)c1)c1cccc(-c2cccc(O)c2F)n1 : true
Oc1cc(Nc2cccc(-c3cccc(O)c3F)n2)ccc1F : false
Cc1cc(-c2ccc3ccc(C(=O)c4ccc(F)c(O)c4)nc3c2)ccc1O : false
Nc1ccc2ccc(C(=O)c3ccc(F)c(O)c3)nc2c1 : false
O=C(c1ccc(F)c(O)c1)c1ccc2ccccc2c1 : false

Turning now to a further molecule:
Q) Is the recorded value of inhibition equal to or greater than 70% for this molecule? `CN(c1ccc(F)c(O)c1)c1cccc(-c2cccc(O)c2F)n1`
A) true

###

Molecular target: 17-beta-hydroxysteroid dehydrogenase type 1 (Homo sapiens) (UniProt P14061)
Sequence (P14061 whole entry): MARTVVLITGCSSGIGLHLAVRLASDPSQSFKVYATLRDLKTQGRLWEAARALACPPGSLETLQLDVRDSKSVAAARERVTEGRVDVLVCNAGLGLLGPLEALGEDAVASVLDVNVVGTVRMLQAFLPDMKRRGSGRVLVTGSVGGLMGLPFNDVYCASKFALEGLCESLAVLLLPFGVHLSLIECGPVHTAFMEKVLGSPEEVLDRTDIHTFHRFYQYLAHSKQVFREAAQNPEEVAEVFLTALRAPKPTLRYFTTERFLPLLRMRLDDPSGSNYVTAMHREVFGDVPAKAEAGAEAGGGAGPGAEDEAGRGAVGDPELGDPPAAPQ
Assay: Inhibition of human placental cytosolic 17beta-HSD1 using [2,4,6,7-3H]-labeled E1/E1 as substrate and NADH at 1 uM after 10 mins by HPLC based radioflow detection method
The source made the active and inactive calls. The rule behind the calls is not given here.
ENDPOINT: inhibition

O=C(c1ccc(F)c(O)c1)c1ccc2cc(O)ccc2n1 : 20%
O=C(c1ccc(F)c(O)c1)c1ccc2ccccc2n1 : 6%
N#Cc1ccc2ccc(C(=O)c3ccc(F)c(O)c3)nc2c1 : inactive
O=C(c1ccc(F)c(O)c1)c1cccc(-c2cccc(O)c2F)n1 : 8%
Cc1ccc2nc(C(=O)c3ccc(F)c(O)c3)ccc2c1 : 12%

Now consider the entry below.
Q) Could you tell me which inhibition is on file for `O=C(c1ccc(F)c(O)c1)c1ccc2ccc(-c3nnn[nH]3)cc2n1` ?
A) inactive

###

Experiment: Solubility of the compound in PBS at 200 uM at pH 7.4 measured after 24 hrs
Assay type: physicochemical
ENDPOINT: solubility at 24 h, 200 µM

// input: 5 compounds below; output: solubility at 24 h, 200 µM for each
1. O=C(c1ccc(F)c(O)c1)c1ccc2ccccc2c1
2. O=C(c1ccc(F)c(O)c1)c1ccc2cc(O)ccc2n1
3. Cc1cc(-c2ccc3ccc(C(=O)c4ccc(F)c(O)c4)nc3c2)ccc1O
4. Oc1cc(Nc2cccc(-c3cccc(O)c3F)n2)ccc1F
5. O=C(c1ccc(F)c(O)c1)c1cccc(-c2cccc(O)c2F)n1

A)
1: 25 to 50 µM; 2: > 200 µM; 3: 13 to 25 µM; 4: > 200 µM; 5: > 200 µM

###

For each record, write down the corresponding solubility at 24 h, 200 µM.
Assay: Solubility of the compound in PBS at 200 uM at pH 7.4 measured after 24 hrs
Assay type: physicochemical

Field: example entries. Status: answers known.
Cc1ccc2nc(C(=O)c3ccc(F)c(O)c3)ccc2c1 : 25 to 50 µM
CN(c1ccc(F)c(O)c1)c1cccc(-c2cccc(O)c2F)n1 : > 200 µM
O=C(c1ccc(F)c(O)c1)c1ccc2ccccc2n1 : > 200 µM

// input: 3 compounds below; output: solubility at 24 h, 200 µM for each
1. Oc1cc(Oc2cccc(-c3cccc(O)c3F)n2)ccc1F
2. COc1cc(C(=O)c2ccc3ccccc3n2)ccc1F
3. O=C(c1ccc(F)c(O)c1)c1ccc2ccc(-c3nnn[nH]3)cc2n1

A)
> 200 µM
100 to 200 µM
50 to 100 µM

###

Test: Solubility of the compound in PBS at 200 uM at pH 7.4 measured after 24 hrs
Format: physicochemical
For each record, write down the corresponding solubility at 24 h, 200 µM.

C=C(c1ccc(F)c(O)c1)c1cccc(-c2cccc(O)c2F)n1 : > 200 µM
N#Cc1ccc2ccc(C(=O)c3ccc(F)c(O)c3)nc2c1 : 25 to 50 µM

Q) Could you tell me which solubility at 24 h, 200 µM is on file for `Nc1ccc2ccc(C(=O)c3ccc(F)c(O)c3)nc2c1` ?
A) > 200 µM
